Provenance of the data: patent US9802945B2

Molecular target: human recombinant GABA A receptor containing the alpha2, beta2, and gamma3 subunits (Homo sapiens, UniProt P47869+Q99928)
Assay: Radioligand competition binding assay with [3H]Ro-15-1788 (Flumazenil)
Ki: recorded values
Form entry: value (nM) — number only.

> print(dat)
                            smiles.notation  assay.value
1  CCn1cnc2c(-c3ccc(F)c(-c4ccc(C(=O)NC)cc4OC)c3)cnnc21          6.3

Which Ki is reported for this compound? CCn1cnc2c(-c3ccc(F)c(-c4ccc(C(=O)N(C)C)cc4OC)c3)cnnc21 81.2

###

Target: GABRA2-GABRB2-GABRG2 chloride currents in HEK cells (Homo sapiens (Human), UniProt P18507+P47869)
Sequence (P47869 29-451): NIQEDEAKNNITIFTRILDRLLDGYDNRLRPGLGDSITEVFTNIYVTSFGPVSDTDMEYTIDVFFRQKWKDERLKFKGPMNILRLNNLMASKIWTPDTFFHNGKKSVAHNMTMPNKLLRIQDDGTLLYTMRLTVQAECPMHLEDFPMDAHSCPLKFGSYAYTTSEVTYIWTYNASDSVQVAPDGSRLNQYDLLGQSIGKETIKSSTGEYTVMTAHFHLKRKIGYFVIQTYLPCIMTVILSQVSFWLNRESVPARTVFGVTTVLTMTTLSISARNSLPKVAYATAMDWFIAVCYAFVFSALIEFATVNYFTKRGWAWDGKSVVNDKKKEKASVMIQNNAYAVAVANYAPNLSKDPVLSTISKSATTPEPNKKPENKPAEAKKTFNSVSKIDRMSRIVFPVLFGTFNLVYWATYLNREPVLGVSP
Sequence (P47870 26-512 partner): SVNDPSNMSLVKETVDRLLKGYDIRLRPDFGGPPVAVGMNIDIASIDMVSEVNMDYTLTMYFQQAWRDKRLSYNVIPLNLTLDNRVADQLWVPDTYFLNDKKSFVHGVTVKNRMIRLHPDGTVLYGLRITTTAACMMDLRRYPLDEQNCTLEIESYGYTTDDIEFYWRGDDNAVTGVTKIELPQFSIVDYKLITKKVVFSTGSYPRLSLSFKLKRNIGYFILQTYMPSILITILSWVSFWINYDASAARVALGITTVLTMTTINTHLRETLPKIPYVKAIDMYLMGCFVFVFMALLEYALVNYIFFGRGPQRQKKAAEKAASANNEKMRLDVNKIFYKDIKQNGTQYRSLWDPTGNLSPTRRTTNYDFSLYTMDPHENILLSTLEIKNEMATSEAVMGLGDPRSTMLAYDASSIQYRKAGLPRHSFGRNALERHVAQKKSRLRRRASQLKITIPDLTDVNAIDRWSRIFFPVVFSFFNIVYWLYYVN
Sequence (P18507 40-475): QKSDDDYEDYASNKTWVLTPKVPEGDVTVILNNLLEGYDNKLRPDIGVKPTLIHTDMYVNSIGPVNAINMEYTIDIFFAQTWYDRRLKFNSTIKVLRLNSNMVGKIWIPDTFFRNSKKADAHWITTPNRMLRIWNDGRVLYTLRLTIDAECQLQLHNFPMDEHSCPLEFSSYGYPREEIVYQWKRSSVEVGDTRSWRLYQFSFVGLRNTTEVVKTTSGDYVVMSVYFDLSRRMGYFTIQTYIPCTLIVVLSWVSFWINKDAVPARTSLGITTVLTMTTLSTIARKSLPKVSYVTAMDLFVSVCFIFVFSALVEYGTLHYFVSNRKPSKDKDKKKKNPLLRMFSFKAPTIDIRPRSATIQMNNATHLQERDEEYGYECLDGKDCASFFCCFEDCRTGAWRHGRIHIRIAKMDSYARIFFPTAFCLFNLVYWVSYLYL
Test: QPatch whole-cell patch-clamp electrophysiology, enhancement of GABA current (α2)
Format: cell-based
Conditions: −60 mV, approximately EC10 GABA
Labels assigned by α2 PAM (% enhancement of gamma-aminobutyric acid current) range: 1 (below 30%), 2 (30% to below 50%), 3 (50% or more)

Sample answers from the record:
> print(dat)
                             smiles.notation  category.label
 1  CC(C)n1cnc2c(-c3ccc(F)c(-c4ccc(C(N)=O)cc4)c3)cnnc21               2
 2  CNC(=O)c1ccc(-c2cc(-c3cnnc4c3ncn4C3CC3)ccc2F)cc1               3
 3  CCn1cnc2c(-c3ccc(F)c(-c4cc(F)cc(C(=O)NC)c4)c3)cnnc21.O=C(O)C(F)(F)F               3
 4  CCn1cnc2c(-c3ccc(F)c(-c4ccc(C(N)=O)cc4)c3)cnnc21               1
 5  CC(C)n1cnc2c(-c3ccc(F)c(-c4ccc5c(c4)CN(C)C5=O)c3)cnnc21               3
 6  CCn1cnc2c(-c3ccc(F)c(-c4cccc(C(N)=O)c4)c3)cnnc21.O=C(O)C(F)(F)F               2
 7  CCn1cnc2c(-c3ccc(F)c(-c4ccc(C(=O)N(C)C)cc4OC)c3)cnnc21               1
 8  CN1Cc2cc(-c3cc(-c4cnnc5c4ncn5C4CC4)ccc3F)ccc2C1=O               2
 9  CCn1cnc2c(-c3ccc(F)c(-c4cc(C(=O)N(C)C)ccc4F)c3)cnnc21               2
10  CCn1cnc2c(-c3ccc(F)c(-c4ccc5c(c4)C(=O)NC5)c3)cnnc21               1

Dear colleague, I would appreciate it if you could identify the bin for CCn1cnc2c(-c3ccc(F)c(-c4ccc(C(=O)NC)cc4OC)c3)cnnc21 and reply at your convenience. 2

###

Molecular target: human recombinant GABA A receptor containing the alpha2, beta2, and gamma3 subunits (Homo sapiens, UniProt P47869+Q99928)
Assay: Radioligand competition binding assay with [3H]Ro-15-1788 (Flumazenil)
Conditions: read-out: GABA-α2 Ki; hGABA A alpha2beta2gamma3 membranes from HEK cells; geometric mean of at least two replicates
Counter-ions that a name gives are not always drawn.
Ki: recorded values
Answer by giving the amount and then stating its unit.

> print(dat)
                                   compound  assay.value
1  CNC(=O)c1ccc(-c2cc(-c3cnnc4c3ncn4C3CC3)ccc2F)cc1      20.5 nM
2  CCn1cnc2c(-c3cccc(-c4ccc(C(=O)N(C)C)cc4)c3)cnnc21 [Example 20, trifluoroacetate salt]       224 nM
3  CCn1cnc2c(-c3ccc(F)c(-c4ccc(C(N)=O)cc4)c3)cnnc21       7.5 nM

Please look at the following compound next.
Which Ki is reported for this compound? CCn1cnc2c(-c3ccc(F)c(-c4ccc5c(c4)C(=O)NC5)c3)cnnc21 81.8 nM
